Numbers sourced from paper PMC10397247.

Target: T1, APC4011-AA
T1 chain: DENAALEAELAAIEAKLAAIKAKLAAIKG
Assay: two-hybrid library CCmax;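 also: natural log of median RNA to DNA barcode read ratio; higher means stronger binding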
Details: mean of both orientations
Values of interaction score greater than or equal to -1 map to TRUE; values below map to FALSE.

Binder	Assigned Class
DKIAALEAEIAALKAENAALKAKNAALEG [4H2143-AA]	TRUE
DKLAAIKAELAAIEAKLAAIKAKNAALKG [APC1015-AA]	TRUE
DEIAALKAKIAALEAKIAALEAKNAALEG [4H807-AA]	TRUE
DEIAALKAENAALKAENAALKAKIAALEG [4H733-AA]	FALSE
DKIAALEAENAALKAKNAALEAEIAALKG [4H2290-AA]	FALSE
DKIAALEAKNAALEAENAALKAEIAALKG [4H2458-AA]	TRUE

Lookup: Could you verify whether the entry DKIAALEAKNAALEAEIAALKAKNAALEG [4H2447-AA] shows interaction score of no less than -1?
Found: TRUE
